src = paper PMC8809517

I'd appreciate it if you could supply pKd values for the items below.
Assay system: T1, GFP-9S library array, motif 4 ND N98S;D124P (synthetic construct, N98S;D124P)
T1 chain: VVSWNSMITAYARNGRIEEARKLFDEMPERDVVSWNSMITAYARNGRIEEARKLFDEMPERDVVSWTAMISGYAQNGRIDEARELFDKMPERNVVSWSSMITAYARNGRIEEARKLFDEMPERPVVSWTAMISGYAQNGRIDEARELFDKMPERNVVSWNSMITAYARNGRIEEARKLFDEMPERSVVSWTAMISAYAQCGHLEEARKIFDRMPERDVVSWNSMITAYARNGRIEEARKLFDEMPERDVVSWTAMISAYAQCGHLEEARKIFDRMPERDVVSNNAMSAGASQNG
Method description: high-throughput RNA pulldown from lysate on Ni-NTA beads; HRP: 50 mM Tris pH 8, 150 mM NaCl, 1 mM beta-mercaptoethanol, 50 ug/ml BSA, 3 ug/ml yeast RNA, 0.5% heparin; ITC and FP: Tris pH 8, 200 mM KCl, 5% glycerol; MST: 50 mM Tris pH 8, 200 mM NaCl, 1 mM DTT, BSA, heparin, 0.05% Tween 20
Condition summary: tags: N-terminal His-eGFP; label: 5' Cy5
Conceptually, pKd converts a concentration in mol/L into minus its log10.

Qu. Name the reported pKd value associated with the binder AUUACACGUGA (ssRNA) [Cy5-rpoA]
Ans. 6.91

Qu. Data request, read-out pKd, for AUUAGACGUGA (ssRNA) [Cy5-rpoA-G]
Ans. 6.92
